- Tested on: HepG2-A16-CD81EGFP cells
- Measurement Description: cells
- Condition Label: Homo sapiens, HepG2, read-out: HepG2 Tox% @ 50 uM rep1
Measured Parameter: cytotoxicity at 50 µM (%)
Answers are plain numbers, in %.

1) CCCCOc1ccc(C(=O)Nc2cc(C)on2)cc1; -15

Please report cytotoxicity at 50 µM for every entry that follows.
1. Cc1ccc(F)cc1NC(=O)c1cc(Cl)ccc1Nc1ccccc1
2. CCOC(=O)c1cnc2c(C)cccc2c1Nc1ccc(C(C)=O)cc1
3. CN1CCN(c2nc(Nc3ccc(O)cc3)nc3ccccc23)CC1
4. COc1ccc(C2c3ccc4ccccc4c3Oc3ncn(CCCN(C)C)c(=N)c32)cc1 (stereo not drawn)
5. COc1ccc(C)c2sc(N(Cc3cccnc3)C(=O)c3ccc(C#N)cc3)nc12
6. COc1cc(-c2nc(-c3ccc(Sc4ccccc4)cc3)c(-c3ccccc3)[nH]2)cc(OC)c1O

1: -8; 2: 18; 3: 25; 4: 99; 5: 18; 6: 89

Please report cytotoxicity at 50 µM for every entry that follows.
1. Cc1ccc2c(C)nc(Nc3nc(C)cc(-c4ccccc4)n3)nc2c1
2. COc1ccc(NC(=O)C2c3ccccc3C(=O)N(CC(C)C)C2c2cccs2)cc1 (stereo not drawn)

1. 37
2. 37
